Each record here notes measured interaction score.
target_system: T1, O14-bH
T1 chain: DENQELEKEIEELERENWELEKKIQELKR
protocol_text: two-hybrid library CCNG1;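 note: natural log of median RNA to DNA barcode read ratio; higher means stronger binding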
Give the figure by itself; no unit, no explanation.

Field: example entries. Status: answers known.
binder	quantity_kind	quantitative_readout
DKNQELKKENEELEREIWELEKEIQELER [O1-bH]	interaction score	-0.549
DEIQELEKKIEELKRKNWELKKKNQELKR [O12-bH]	interaction score	-1.38
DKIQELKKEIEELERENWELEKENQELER [O11-bH]	interaction score	-0.342

Now examine the next entry.
Quick one: interaction score for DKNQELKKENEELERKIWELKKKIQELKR [O10-bH] ? -1.44
